- target.under.test: TEC (Homo sapiens)
- Sequence (P42680 whole entry): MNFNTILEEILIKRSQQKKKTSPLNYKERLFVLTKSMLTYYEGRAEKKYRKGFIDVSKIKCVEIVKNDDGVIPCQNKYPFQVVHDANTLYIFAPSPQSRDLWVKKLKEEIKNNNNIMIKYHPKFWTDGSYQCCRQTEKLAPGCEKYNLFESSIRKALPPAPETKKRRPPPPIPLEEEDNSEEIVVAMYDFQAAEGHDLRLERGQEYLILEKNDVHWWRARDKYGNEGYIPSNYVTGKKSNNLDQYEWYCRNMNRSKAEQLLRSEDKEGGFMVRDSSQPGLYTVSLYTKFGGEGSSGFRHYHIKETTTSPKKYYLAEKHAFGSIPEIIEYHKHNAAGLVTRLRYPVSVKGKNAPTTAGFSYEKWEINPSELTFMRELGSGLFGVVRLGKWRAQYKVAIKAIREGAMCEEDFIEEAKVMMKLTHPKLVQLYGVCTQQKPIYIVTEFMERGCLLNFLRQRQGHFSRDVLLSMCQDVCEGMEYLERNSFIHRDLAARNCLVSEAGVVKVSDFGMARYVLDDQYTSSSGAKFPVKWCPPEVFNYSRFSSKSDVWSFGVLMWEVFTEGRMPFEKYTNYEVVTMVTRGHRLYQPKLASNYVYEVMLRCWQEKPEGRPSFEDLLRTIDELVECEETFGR
- method.notes: Kinase enzyme activity assay (mobility shift assay, Carna)
- conditions: TEC; 1 µmol/L of BTK inhibitor
Provide the reported Percentage inhibition of kinase enzyme activity of each item.
One number for each entry, in %.

// solved cases for Percentage inhibition of kinase enzyme activity follow
Form entry - test system: TEC (Homo sapiens); read-out: Percentage inhibition of kinase enzyme activity; compound: `CC#CC(=O)N1CCC[C@H]1c1nc(-c2ccc(C(=O)Nc3ccccn3)cc2)c2c(N)nccn12`
95.77

Please tell me: Percentage inhibition of kinase enzyme activity of `C=CC(=O)N1CCC[C@@H](n2nc(-c3ccc(Oc4ccccc4)cc3)c3c(N)ncnc32)C1` , system TEC (Homo sapiens)?
91.92

TEC (Homo sapiens) / Percentage inhibition of kinase enzyme activity / `COc1ccc(F)cc1C(=O)NCc1ccc(-c2nn([C@@H](C)C(F)(F)F)c(N)c2C(N)=O)cc1` : value?
87.84

***
Missing value: Percentage inhibition of kinase enzyme activity, TEC (Homo sapiens), entry `O=C(c1ccc(Oc2ccccc2)cc1Cl)c1c[nH]c2ncnc(N[C@@H]3CC[C@@H](CO)OC3)c12` . Fill in?
98.70

This collection of values is drawn from paper PMC12586182.
